Tested on: RPMI-8226 leukemia
assayProcedure: NCI tumour cell line growth inhibition, 48 h
quantityName: TGI

IN: Give the observed TGI of "COc1ccc(-c2cc(-c3ccc(Cl)cc3)c(C#N)c(=O)n2CCCCC(=O)Nc2ccccc2N)cc1" for RPMI-8226 leukemia.
OUT: 6.68 µM

IN: Give the observed TGI of COc1ccc(C(C2=C(C)C(=O)c3ccccc3C2=O)c2ccc(C(C)C)cc(=O)c2O)cc1 (stereo not given) for RPMI-8226 leukemia.
OUT: > 100 µM

IN: Give the observed TGI of COC(=O)C1=CCON(c2ccccc2)C1c1ccccc1 (stereo not given) for RPMI-8226 leukemia.
OUT: > 100 µM

IN: Give the observed TGI of CC(C)=CCC12Cc3ccc(O)cc3C(C(C)CN1)C2C (stereo not given) for RPMI-8226 leukemia.
OUT: > 100 µM

IN: Give the observed TGI of "CCOC(=O)c1c(NC(=O)c2ccc(C(C)C)cc2)sc2c(CN(C)C)c(O)ccc12" for RPMI-8226 leukemia.
OUT: 4.6 µM

IN: Give the observed TGI of CC(=O)OC1CC2(O)C(CCC3(C)C(c4ccc(=O)oc4)CCC32O)C2(C)C1=CC(O)C1OC12 (stereo not given) for RPMI-8226 leukemia.
OUT: 0.4 µM

Others:
IN: Give the observed TGI of "O=C1N[C@@H]2CCC[C@@H]2[C@@H]1c1ccc(Cl)cc1" for RPMI-8226 leukemia.
OUT: > 100 µM

IN: Give the observed TGI of "CCOc1ccc(N=Nc2ccc3cc(/C(C)=N/NC(=O)/C(C#N)=C\c4ccc(N(CCC#N)CCC#N)cc4)c(=O)oc3c2)cc1" for RPMI-8226 leukemia.
OUT: > 10 µM

IN: Give the observed TGI of "COc1cc2nncc(Sc3cnnc4ccccc34)c2cc1OC" for RPMI-8226 leukemia.
OUT: 77.7 µM

IN: Give the observed TGI of "Cc1cnc2[nH]c(-c3cccc(F)c3)cc(=O)c2c1" for RPMI-8226 leukemia.
OUT: > 43 µM

Reference source: PubChem BioAssay (NCI)
